# key: entry, value: binding normalized to PSGL-1
- assayedTarget: T1, SulfoTyr C4 peptide (not fully specified; Y4, Y7 and Y9 sulfated (SO3); C-terminal biotin)
- T1 construct: also called C4 alpha chain peptide; human sulfotyrosinylated C4 peptide
- T1 peptide: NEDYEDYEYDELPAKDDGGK
- runDescription: ELISA, 50 nM mAb
valueType: binding normalized to PSGL-1

09C10 (antibody, V domains shown) VH: EVKLLESGGGLIQPGGSLRLSCAASGFTVSNNYVTWVRQAPGKGLELVSSIYSGGGTYYADSVKGRFTISRDNSKNTVYLQMNSLRADDTAVYYCARNVPVTNFGYWGQGTLVTVSS VL: DIVMTQSPLSLPVTLGQPASISCRSSQSLVYRDGNTYLNWFQQRPGQSPRRLIYKVSNRDSGVPDRFSGSGSGTDFTLKISRVEAEDVGVYYCMQLTHWPPGFAQGTKLEIK | 1.15
05D01 (antibody, V domains shown) VH: QVTLRESGGALVQPGGSLRLSCAASGFPLRSNAMTWVRQAPGKGLEWVSDIRGNGASTYYADSVKGRFTISRDDSNNILFLQMNSLRAEDTAVYYCVGHGSSSYWGQGTLVTVSS VL: DVVMTQSPLSLPVTLGQPASISCRSSQSLVYRDGNIYLNWFQQRPGQSPRRLIYKVSNRDSGVPDRFSGSGSGTDFTLKISRVEAEDVGVYYCMQLTHWPPGFAQGTKLEIK | 0.11
05A07 (antibody, IgG4, V domains shown) VH: QVQLVQSGSEVKRPGASVKVSCKTSGYTFSNYGIAWVRQAPGQGLEWVGWVSAYNGKTGASQKLQGRVTMTTDRSTTTAYLELRSLQSDDTAVYYCARGVKGGLTGYARDYWGQGTLVIVSS VL: DIVLTQSPRSLPVTLGQPASISCRSSQSLVNRAGDTYLNWFQQRPGQSPRRLIYKVSNRDSGVPDRFSGSGSGTDFTLKISRVEAEDVGVYYCMQGTQWPYTFGQGTKLEIK | 1.15
01A04 (antibody, IgG4, V domains shown) VH: EVQLVQSGAEVKKPGASVKVSCKASGYTFTSYYIHWVRQAPGQGLEWMGIIRPSGGSTSYAQKFQGRVTMTRDTSTSTVYMELSSLRSEDTAMYYCARVGVGSFDYWGQGTLVTVSS VL: DIQMTQSPSTLSASVGDRVTITCRASQSVSNWLAWYQQKPGKAPKLLIYKASSLESGVPSRFSGSGSGTEFTLTISSLQPDDFATYYCQWFRTFGPGTKVDIK | 0.24

// provenance: patent US20220396632A1
